tgt: NS5B polymerase (Hepatitis C virus genotype 1b, UniProt P26663)
Sequence (P26663 2420-3010): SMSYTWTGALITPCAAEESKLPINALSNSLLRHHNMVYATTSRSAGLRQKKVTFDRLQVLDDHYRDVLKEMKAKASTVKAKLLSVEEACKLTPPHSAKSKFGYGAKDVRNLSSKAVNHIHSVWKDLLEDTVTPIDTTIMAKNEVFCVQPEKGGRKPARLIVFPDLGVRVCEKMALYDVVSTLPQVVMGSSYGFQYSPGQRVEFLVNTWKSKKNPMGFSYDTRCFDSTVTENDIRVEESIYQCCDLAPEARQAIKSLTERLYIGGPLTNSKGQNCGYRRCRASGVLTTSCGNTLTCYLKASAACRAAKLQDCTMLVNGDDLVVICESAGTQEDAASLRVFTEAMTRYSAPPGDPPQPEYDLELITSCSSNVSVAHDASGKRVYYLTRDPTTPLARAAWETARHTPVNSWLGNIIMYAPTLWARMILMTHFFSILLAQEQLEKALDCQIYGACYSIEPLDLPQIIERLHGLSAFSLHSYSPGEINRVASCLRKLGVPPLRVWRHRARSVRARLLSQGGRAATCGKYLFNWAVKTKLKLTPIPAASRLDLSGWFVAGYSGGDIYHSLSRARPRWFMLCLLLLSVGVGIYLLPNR

compound	IC50
CS(=O)(=O)Nc1ccc2c(c1)S(=O)(=O)N=C(C1=C(O)C3CCCCCC3N(NC3CCC3)C1=O)N2 (stereo not shown)	20 to 100 nM
CS(=O)(=O)Nc1ccc2c(c1)S(=O)(=O)N=C(C1=C(O)[C@@H]3CC=CC[C@@H]3N(Cc3ccc(F)cc3)C1=O)N2 (relative stereo)	20 to 100 nM
CS(=O)(=O)Nc1ccc2c(c1)S(=O)(=O)N=C(C1=C(O)[C@@H]3CCC[C@@H]3N(CC3CCC3)C1=O)N2 (relative stereo)	20 to 100 nM
CS(=O)(=O)Nc1ccc2c(c1)S(=O)(=O)N=C(C1=C(O)[C@@H]3CCC[C@@H]3N(Cc3ccc(F)cn3)C1=O)N2 (relative stereo)	100 to 1000 nM
CS(=O)(=O)Nc1ccc2c(c1)S(=O)(=O)N=C(C1=C(O)[C@@H]3CCC[C@@H]3N(Cc3ccc(F)cc3)C1=O)N2 [Example 12]	< 20 nM
CS(=O)(=O)Nc1ccc2c(c1)S(=O)(=O)N=C(C1=C(O)[C@H]3CCC[C@H]3N(Cc3ccc(F)cc3)C1=O)N2	20 to 100 nM
CC(C)(C)CCN1C(=O)C(C2=NS(=O)(=O)c3cc(NS(C)(=O)=O)ccc3N2)=C(O)[C@H]2CCC[C@H]21 (relative stereo)	< 20 nM
CS(=O)(=O)Nc1ccc2c(c1)S(=O)(=O)N=C(C1=C(O)[C@@H]3CCC[C@@H]3N(Cc3cccc(C(F)(F)F)c3)C1=O)N2	100 to 1000 nM
O=C1C(C2=NS(=O)(=O)c3cc(I)ccc3N2)=C(O)C2CCCCC2N1Cc1ccc(F)cc1 (stereo not shown)	1000 to 100000 nM
CS(=O)(=O)Nc1ccc2c(c1)S(=O)(=O)N=C(C1=C(O)[C@@H]3CCC[C@@H]3N(Cc3ccccc3)C1=O)N2 (relative stereo)	20 to 100 nM
CS(=O)(=O)Nc1ccc2c(c1)S(=O)(=O)C=C(C1=C(O)[C@@H]3CCCCC[C@@H]3N(Cc3ccc(F)cc3)C1=O)N2 (relative stereo)	< 20 nM
CCN1C(=O)C(C2=NS(=O)(=O)c3cc(NS(C)(=O)=O)ccc3N2)=C(O)[C@@H]2CCC[C@@H]21 (relative stereo)	100 to 1000 nM
CC(C)CCN1C(=O)C(C2=NS(=O)(=O)c3cc(NS(C)(=O)=O)ccc3N2)=C(O)C2CCCCCC21 (stereo not shown)	20 to 100 nM

---

tgt: NS5B polymerase (Hepatitis C virus genotype 1b, UniProt P26663)
pIC50: −log10 of the molar value. Where a name gives a salt, the structure may show the parent alone.

compound	tgt	pIC50
CS(=O)(=O)Nc1ccc2c(c1)S(=O)(=O)N=C(C1=C(O)[C@@H]3CCC[C@@H]3N(Cc3ccc(F)c(F)c3)C1=O)N2 [Example 27]	NS5B polymerase (Hepatitis C virus genotype 1b, UniProt P26663)	> 7.70
CN(C)N1C(=O)C(C2=NS(=O)(=O)c3cc(NS(C)(=O)=O)ccc3N2)=C(O)[C@@H]2CCC[C@@H]21 (relative stereo) [Example 38, hydrochloride]	NS5B polymerase (Hepatitis C virus genotype 1b, UniProt P26663)	4.00 to 6.00
CS(=O)(=O)Nc1ccc2c(c1)S(=O)(=O)N=C(C1=C(O)C3CCCCCCC3N(Cc3ccc(F)cc3)C1=O)N2 (stereo not shown) [Example 3]	NS5B polymerase (Hepatitis C virus genotype 1b, UniProt P26663)	6.00 to 7.00
CS(=O)(=O)Nc1ccc2c(c1)S(=O)(=O)C=C(C1=C(O)[C@@H]3CCC[C@@H]3N(Cc3ccc(F)cc3)C1=O)N2 (relative stereo) [Example 25]	NS5B polymerase (Hepatitis C virus genotype 1b, UniProt P26663)	7.00 to 7.70
